Data provenance: patent US4569907A

tested target: Collagenase from culture media of normal human skin fibroblasts (Homo sapiens)
Construct: endogenous in cells; host or cells: normal human skin fibroblasts (culture media)
Sequence (P03956 100-469): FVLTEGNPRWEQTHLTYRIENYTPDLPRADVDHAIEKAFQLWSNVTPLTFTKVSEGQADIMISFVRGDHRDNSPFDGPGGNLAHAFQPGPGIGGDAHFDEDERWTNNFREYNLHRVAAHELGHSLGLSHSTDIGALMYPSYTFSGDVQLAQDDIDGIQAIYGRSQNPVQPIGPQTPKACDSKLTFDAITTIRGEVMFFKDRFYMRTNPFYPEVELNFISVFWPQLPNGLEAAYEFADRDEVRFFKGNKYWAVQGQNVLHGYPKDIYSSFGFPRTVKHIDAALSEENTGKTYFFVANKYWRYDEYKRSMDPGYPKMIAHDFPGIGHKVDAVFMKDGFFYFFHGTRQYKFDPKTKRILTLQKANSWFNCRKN
assay comment: Spectrophotometric assay for collagenase: hydrolysis of thiopeptolide substrates with 4,4'-dithiodipyridine or Ellman's reagent
Assay type: biochemical
condition notes: Table I Comparison of Substrate; spectrophotometric assay, pH 6.5-7.0, initial rates
Overview of reported Relative Rate (of hydrolysis) across a group of molecules:
Response field accepts a number only; no unit should be typed.

CCOC(=O)CNC(=O)[C@H](Cc1ccccc1)NC(=O)[C@H](CC(C)C)SC(=O)CNC(=O)[C@H](C)NC(=O)[C@@H]1CCCN1C(C)=O [Ac-Pro-Ala-Gly-S-Leu-Phe-Gly-OC2 H5] = 2800
CCOC(=O)CNC(=O)[C@H](Cc1ccccc1)NC(=O)[C@H](CC(C)C)SC(=O)CNC(=O)[C@H](CC(C)C)NC(=O)[C@@H]1CCCN1C(C)=O [Ac-Pro-Leu-Gly-S-Leu-Phe-Gly-OC2 H5] = 5900

Input: Given the molecule CCOC(=O)CNC(=O)[C@H](CC(C)C)NC(=O)[C@H](CC(C)C)SC(=O)CNC(=O)[C@H](CC(C)C)NC(=O)[C@@H]1CCCN1C(C)=O [Ac-Pro-Leu-Gly-S-Leu-Leu-Gly-OC2 H5] , what is its reported Relative Rate (of hydrolysis)?
Output: 8800

Input: Given the molecule CCOC(=O)CNC(=O)[C@H](C)NC(=O)[C@H](CC(C)C)SC(=O)CNC(=O)[C@H](C)NC(=O)[C@@H]1CCCN1C(C)=O [Ac-Pro-Ala-Gly-S-Leu-Ala-Gly-OC2 H5] , what is its reported Relative Rate (of hydrolysis)?
Output: 950
